Please consider the recorded Ki for Adenosine receptor A2a (Homo sapiens, UniProt P29274) in what follows.
MEASURED_QUANTITY: Ki

> print(dat)
                         compound.structure  value.reported
1  CCOc1ccc(-c2cn3c(=O)n(-c4ccccc4)nc3c(N)n2)cc1          2.9 nM
2  Nc1nc(-c2ccccc2)cn2c(=O)n(-c3ccc(O)cc3)nc12          138 nM
3          Cc1cn2c(=O)n(-c3ccccc3)nc2c(N)n1          485 nM
4  Nc1nc(-c2cccc(OCc3ccccc3)c2)cn2c(=O)n(-c3ccccc3)nc12      > 30000 nM
5  Nc1nc(-c2ccc(OCC3CC3)cc2)cn2c(=O)n(-c3ccccc3)nc12      > 30000 nM

Values from ChEMBL document CHEMBL4011624
